Could you please report measured melting point for the items listed next?

Example compounds with recorded melting point:
# compound, melting point
data = [
    ("COc1cc2nccc(Nc3ccc4nc(-c5ccc(C)cc5)[nH]c4c3)c2cc1OC [Compound 12l]", "316 to 319 °C"),
    ("COc1cc2nccc(Nc3ccc4nc(-c5ccc(C(C)(C)C)cc5)[nH]c4c3)c2cc1OC [Compound 12n]", "257 to 259 °C"),
    ("COc1cc2nccc(Nc3ccc4nc(-c5ccccc5C)[nH]c4c3)c2cc1OC [Compound 12j]", "174 to 175 °C"),
]

Batch request: melting point per item, same order as input.
1. COc1cc2nccc(Nc3ccc4nc(-c5cc(F)ccc5Br)[nH]c4c3)c2cc1OC [Compound 12s]
2. COc1cc2nccc(Nc3ccc4nc(-c5ccc(Br)cc5)[nH]c4c3)c2cc1OC [Compound 12g]
3. COc1cc2nccc(Nc3ccc4nc(-c5cccc(F)c5)[nH]c4c3)c2cc1OC [Compound 12b]
4. COc1cc2nccc(Nc3ccc4nc(-c5ccccc5F)[nH]c4c3)c2cc1OC [Compound 12a]

1. 284 to 286 °C
2. 280 to 282 °C
3. 286 to 288 °C
4. 247 to 249 °C

These entries and their values trace back to paper PMC6237173.
